FYI, the data here is from patent US9303033B2.

Reported IC50 values, CK2 ααββ (Homo sapiens (Human), UniProt P68400).

{"molecule": "O=C1NC(=O)/C(=C/c2cnn3c(NCC4CC4)cc(Nc4cccc(CN5CCOCC5)c4)nc23)N1", "val": "< 100 nM"}
{"molecule": "O=C1NC(=O)/C(=C/c2cnn3c(NCC4CC4)cc(Nc4ccncc4)nc23)N1 [Example E2]", "val": "< 10 nM"}
{"molecule": "O=C1NC(=O)C(=Cc2cnn3c(NC4CC4)cc(Nc4ccc(OCCN5CCOCC5)cc4F)nc23)N1", "val": "< 10 nM"}
{"molecule": "O=C1NC(=O)/C(=C/c2cnn3c(SCc4ccccc4)cc(Nc4cccc(Cl)c4)nc23)N1", "val": "< 1000 nM"}
{"molecule": "O=C1NC(=O)/C(=C/c2cnn3c(NC4CC4)cc(-c4ccnc(F)c4)nc23)N1", "val": "< 10 nM"}

Turning now to a further record.
(Q) Quick one: give measured IC50 for CC(C)N1CCC(Nc2cc(Nc3cccc(Cl)c3)nc3c(/C=C4\NC(=O)NC4=O)cnn23)CC1
(A) < 100 nM
